target_of_assay: UniProtKB O30463
Sequence (O30463 1-181): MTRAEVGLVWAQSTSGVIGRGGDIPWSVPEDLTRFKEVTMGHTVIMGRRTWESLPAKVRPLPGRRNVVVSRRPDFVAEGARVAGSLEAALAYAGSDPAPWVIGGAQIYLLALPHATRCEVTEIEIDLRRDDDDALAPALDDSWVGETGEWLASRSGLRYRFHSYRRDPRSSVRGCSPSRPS
test: Inhibition of M. avium DHFR (literature assay)
Assay type: biochemical
protocol_conditions: compounds 3a-k
Attribute: IC50
Quick note: give the figure in µM, leave out the unit.

CCCCCCCCCOc1ccc(OC)c(Cc2cnc(N)nc2N)c1 [Compound 3e] :: 32

Qu. Retrieve IC50 measured for COc1ccc(OCCCCCC(=O)O)cc1Cc1cnc(N)nc1N [Compound 3h] and print it.
Ans. 0.15

Qu. Retrieve IC50 measured for COc1ccc(OCCCCCCCC(=O)O)cc1Cc1cnc(N)nc1N [Compound 3j] and print it.
Ans. 0.13

----------
Attribute: IC50
target_of_assay: rat liver DHFR (Rattus norvegicus)
Sequence (Q920D2 whole entry): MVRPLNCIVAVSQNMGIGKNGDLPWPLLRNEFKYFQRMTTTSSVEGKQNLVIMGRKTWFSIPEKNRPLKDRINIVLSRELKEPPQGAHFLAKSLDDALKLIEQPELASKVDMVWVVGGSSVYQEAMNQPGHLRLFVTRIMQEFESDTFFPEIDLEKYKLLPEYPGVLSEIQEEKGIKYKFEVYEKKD
test: Inhibition of rat liver DHFR (literature assay)
protocol_conditions: read-out: IC50 (μM) Rat liver, compounds 3a-k
Quick note: give the figure in µM, leave out the unit.

Example entries and their recorded answers appear below.
CCCCCOc1ccc(OC)c(Cc2cnc(N)nc2N)c1 [Compound 3a] :: 44
COc1ccc(OCCCCCCCC(=O)O)cc1Cc1cnc(N)nc1N [Compound 3j] :: 12
COc1ccc(OCCCCCCC(=O)O)cc1Cc1cnc(N)nc1N [Compound 3i] :: 12

Qu. Retrieve IC50 measured for COc1ccc(OCCCCCCCCC(=O)O)cc1Cc1cnc(N)nc1N [Compound 3k] and print it.
Ans. 12
